TARGET OR SYSTEM: T1, Med25-ACID_(532-680), activator interaction domain (ACID) of mediator complex subunit 25 (Arabidopsis thaliana, UniProt Q7XYY2 532-680)
T1 construct: 15N- or 13C,15N-labelled in the NMR titrations; unlabelled in ITC, CEST and stopped-flow; also called AtMed25-ACID; ACID domain; source: E. coli BL21 DE3, purified (glutathione Sepharose, TEV cleavage, cation exchange, SEC); not shown: GST, N-terminal, cleaved
T1 sequence (looked up): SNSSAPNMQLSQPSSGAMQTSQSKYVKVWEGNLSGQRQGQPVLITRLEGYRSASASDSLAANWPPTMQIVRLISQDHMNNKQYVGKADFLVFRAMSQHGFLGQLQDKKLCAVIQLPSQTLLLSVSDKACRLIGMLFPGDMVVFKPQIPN
ASSAY TEXT: ITC; 25 °C; 50 mM HEPES pH 7.4, 100 mM NaCl, 0.5 mM TCEP; ~1:10 cell to syringe concentration ratio, cell around 15 µM for high-affinity fragments; one-set-of-sites model; which protein was in the cell is not stated
MEASUREMENT SETUP: both partners purified
Form field: stoichiometry N (one value per entry).
// print number alone

[
  {
    "BINDER": "DREB2A_(234-335) (domain or fragment, Arabidopsis thaliana, UniProt O82132 234-335, looked up, DREB2A, Arabidopsis thaliana, AT5G05410, residues 234-335; source: E. coli BL21 DE3, purified (glutathione Sepharose, TEV cleavage, SEC); not shown: GST, N-terminal, cleaved) QDSLSVADYGWPNDVDQSHLDSSDMFDVDELLRDLNGDDVFAGLNQDRYPGNSVANGSYRPESQQSGFDPLQSLNYGIPPFQLEGKDGNGFFDDLSYLDLEN",
    "QUANTITY": "stoichiometry N",
    "MEASURED RESULT": 1
  }
]

Need stoichiometry N, item DREB2A_(195-276) D241A (domain or fragment, Arabidopsis thaliana, UniProt O82132 195-276, looked up, source: E. coli BL21 DE3, purified (glutathione Sepharose, TEV cleavage, SEC); not shown: GST, N-terminal, cleaved) VKADKHWLSEFEHNYWSDILKEKEKQKEQGIVETCQQQQQDSLSVAAYGWPNDVDQSHLDSSDMFDVDELLRDLNGDDVFAG 1.07

Please give the result for DREB2A_(195-276) W244A (domain or fragment, Arabidopsis thaliana, UniProt O82132 195-276, looked up, source: E. coli BL21 DE3, purified (glutathione Sepharose, TEV cleavage, SEC); not shown: GST, N-terminal, cleaved) VKADKHWLSEFEHNYWSDILKEKEKQKEQGIVETCQQQQQDSLSVADYGAPNDVDQSHLDSSDMFDVDELLRDLNGDDVFAG too. 1

Now the same for QDSLSVADYGWPNDVDQSHLDSSDMFDVDELLRDLNGDD (domain or fragment, Arabidopsis thaliana, UniProt O82132 234-272, looked up, DREB2A, Arabidopsis thaliana, AT5G05410, residues 234-272; source: E. coli BL21 DE3, purified (glutathione Sepharose, TEV cleavage, SEC); not shown: GST, N-terminal, cleaved) [DREB2A_(234-272)] 0.97

Please give the result for DREB2A_(195-335,Δ244-276) (domain or fragment, Arabidopsis thaliana, UniProt O82132 195-335, looked up, also called splice variant fragment; source: E. coli BL21 DE3, purified (glutathione Sepharose, TEV cleavage, SEC); not shown: GST, N-terminal, cleaved) VKADKHWLSEFEHNYWSDILKEKEKQKEQGIVETCQQQQQDSLSVADYGLNQDRYPGNSVANGSYRPESQQSGFDPLQSLNYGIPPFQLEGKDGNGFFDDLSYLDLEN too. 1.02

QDSLSVADYGWPNDVDQSHLDSS (domain or fragment, Arabidopsis thaliana, UniProt O82132 234-256, looked up, also called monovalent ABS fragment; source: E. coli BL21 DE3, purified (glutathione Sepharose, TEV cleavage, SEC); not shown: GST, N-terminal, cleaved) [DREB2A_(234-256) (ABS)] , same question. 0.86
